Tested on: SF-539
Test: NCI tumour cell line growth inhibition, 48 h
Activity calls are given as the source filed them. Cut-off read from the data, not from the text of the source: active = GI50 up to about 1.1 µM and inactive = higher.
# maps each entry to its GI50

{"molecule": "Cc1cc(C)c(S(=O)(=O)N(CCCCCCN)OCCCON(CCCCCCN)S(=O)(=O)c2c(C)cc(C)cc2C)c(C)c1", "GI50": "2.28 µM (inactive)"}
{"molecule": "CCOc1ccc(NC(=O)/C(=N\\NC(C)(C)C)C2C(=O)Nc3ccccc3[S+]2[O-])cc1 (stereo not given)", "GI50": "> 100 µM (inactive)"}
{"molecule": "COc1cccc(OC)c1/C=C1\\OC(=O)c2cccc(OC)c21", "GI50": "2.3 µM (inactive)"}
{"molecule": "Cc1ccc(NC(=O)CC/C(CC(=O)C(C)(C)C)=N\\Nc2ccc([N+](=O)[O-])cc2[N+](=O)[O-])cc1C", "GI50": "59.4 µM (inactive)"}
{"molecule": "COc1cc(OC)c2c(c1)OC(c1cccnc1)C(c1ccccc1)C2=O (stereo not given)", "GI50": "> 100 µM (inactive)"}
{"molecule": "CC1=CSC(O)(c2ccc(Cl)cc2)c2noc(=O)n21 (stereo not given)", "GI50": "> 100 µM (inactive)"}
{"molecule": "Cc1cc(=O)oc2cc(OC(=O)Nc3ccc(Cl)c(Cl)c3)ccc12", "GI50": "18.8 µM (inactive)"}
{"molecule": "C=CCNC(=O)CN(CC(=O)O)C1CCCCC1N(CC(=O)O)CC(=O)O (stereo not given)", "GI50": "> 100 µM (inactive)"}
{"molecule": "CC(C)[C@H](COC(C)(C)C)/N=C/N1CSc2ccccc21", "GI50": "23.5 µM (inactive)"}
{"molecule": "CC[C@H]1[C@@H](C)C=C[C@@H](C)N1S(=O)(=O)c1ccc(C)cc1", "GI50": "> 100 µM (inactive)"}

* * *

Read-out record for HCT-15: GI50

{"compound": "CCOc1cccc2sc(N)nc12", "assayed target": "HCT-15", "GI50": "> 100 µM"}
{"compound": "CN1C/C(=C\\c2ccccc2)C2=NN(C(N)=S)[C@H](c3ccccc3)[C@@H]2C1", "assayed target": "HCT-15", "GI50": "> 100 µM"}
{"compound": "NS(=O)(=O)c1ccc(CNC(=S)NC(=O)Nc2ccc(Cl)c(Cl)c2)cc1", "assayed target": "HCT-15", "GI50": "16.2 µM"}
{"compound": "CC1OC(n2cc(C(F)(F)F)c(=O)[nH]c2=O)C=CC1=O (stereo unspecified)", "assayed target": "HCT-15", "GI50": "20.7 µM"}
{"compound": "C/C=C1/CN2CCC3(O)c4ccccc4N4C=C(C(=O)OC)C1CC2C43O (stereo unspecified)", "assayed target": "HCT-15", "GI50": "> 100 µM"}
{"compound": "Cn1c(C(C#N)c2cc(Cl)ncn2)nc2ccccc21 (stereo unspecified)", "assayed target": "HCT-15", "GI50": "> 100 µM"}
{"compound": "O=[N+]([O-])/C(C(Cl)=C(Cl)Cl)=C(/Sc1ccccc1)N1CCCCC1", "assayed target": "HCT-15", "GI50": "> 100 µM"}
{"compound": "O=C(CCCN1CCC2(CC1)CC(c1ccccc1)OC2=O)c1ccc(F)cc1 (stereo unspecified)", "assayed target": "HCT-15", "GI50": "37.2 µM"}
{"compound": "CCOC(=O)CC1=CSC2=NCCN12", "assayed target": "HCT-15", "GI50": "> 100 µM"}
{"compound": "COC(=O)C(=O)C(C(=O)C(=O)Nc1ccc(C)cc1C)c1nc2ccccc2nc1O (stereo unspecified)", "assayed target": "HCT-15", "GI50": "31.6 µM"}
{"compound": "c1ccc(CSCCC(SCc2ccccc2)SCc2ccccc2)cc1", "assayed target": "HCT-15", "GI50": "> 10 µM"}
